Provide the recorded T/C for the entries that follow.
System: CD8F1 mice, subcutaneous mammary adenocarcinoma, T/C%
protocol-text: NCI In Vivo Anticancer Drug Screen. Data for tumor model Mammary Adenocarcinoma CD8F1 (subcutaneous) in CD8F1
condition-context: endpoint: median tumor weight (est.); dose: 2.5 mg/kg/injection; schedule: Q07DX005 (ip); vehicle: saline; higher = larger tumour
Results filed as inconclusive are left out.

// T/C lookup, compound = O=NN(CCCl)C(=O)NC1OC(CO)C(O)C(O)C1O (centres undefined) , result: 91 % of control

// T/C lookup, compound = c1cc[c]([Sn][c]2ccccc2)cc1 , result: 91 % of control

// T/C lookup, compound = CC(=O)C(O)N1C(=O)C=CC1=O (centres undefined) , result: 77 % of control

// T/C lookup, compound = NC(=O)c1[nH]nc(C2OC(CO)C(O)C2O)c1O (centres undefined) , result: 28 % of control
